- EXPERIMENT_SUMMARY: Hemolytic activity in human RBC measured after 1 hr
- Type: toxicity, cell-based, Erythrocyte
- SETUP_CONDITIONS: red blood cells (erythrocytes)
Label 1 when HC50 at 1 h < 20 µM; otherwise 0.

Q) State whether 20 µM exceeds HC50 at 1 h recorded for CNCC(=O)N[C@@H]1[C@H](O)[C@H](O[C@H]2/C=C/C=C/C=C/C=C/C=C/C=C/C=C/[C@H](C)[C@@H](O)[C@@H](C)[C@H](C)OC(=O)C[C@H](O)C[C@H](O)CC[C@@H](O)[C@H](O)C[C@H](O)C[C@]3(O)C[C@H](O)[C@@H](C(=O)N4CCN(CC(C)(O)CO)CC4)[C@H](C2)O3)O[C@H](C)[C@H]1O (stereo partly specified) .
A) 0

Q) State whether 20 µM exceeds HC50 at 1 h recorded for "COC(=O)NNC(=O)[C@H]1[C@@H]2C[C@@H](O[C@@H]3O[C@H](C)[C@@H](O)[C@H](N)[C@@H]3O)/C=C/C=C/C=C/C=C/C=C/C=C/C=C/[C@H](C)[C@@H](O)[C@@H](C)[C@H](C)OC(=O)C[C@H](O)C[C@H](O)CC[C@@H](O)[C@H](O)C[C@H](O)C[C@](O)(C[C@@H]1O)O2" .
A) 1

Q) State whether 20 µM exceeds HC50 at 1 h recorded for "C[C@@H]1[C@H](O)[C@@H](C)/C=C/C=C/C=C/C=C/C=C/C=C/C=C/[C@H](O[C@@H]2O[C@H](C)[C@@H](O)[C@H](NC(=O)CN)[C@@H]2O)C[C@@H]2O[C@](O)(C[C@@H](O)C[C@@H](O)[C@H](O)CC[C@@H](O)C[C@@H](O)CC(=O)O[C@H]1C)C[C@H](O)[C@H]2C(=O)N1CCN(CCO)CC1" .
A) 0

Q) State whether 20 µM exceeds HC50 at 1 h recorded for "C[C@@H]1[C@H](O)[C@@H](C)/C=C/C=C/C=C/C=C/C=C/C=C/C=C/[C@H](O[C@@H]2O[C@H](C)[C@@H](O)[C@H](NC(=O)CCN)[C@@H]2O)C[C@@H]2O[C@](O)(C[C@@H](O)C[C@@H](O)[C@H](O)CC[C@@H](O)C[C@@H](O)CC(=O)O[C@H]1C)C[C@H](O)[C@H]2C(=O)N1CCN(CCO)CC1" .
A) 0

Q) State whether 20 µM exceeds HC50 at 1 h recorded for CNCC(=O)N[C@@H]1[C@H](O)[C@H](O[C@H]2/C=C/C=C/C=C/C=C/C=C/C=C/C=C/[C@H](C)[C@@H](O)[C@@H](C)[C@H](C)OC(=O)C[C@H](O)C[C@H](O)CC[C@@H](O)[C@H](O)C[C@H](O)C[C@]3(O)C[C@H](O)[C@@H](C(=O)N4CCN(CC(O)CO)CC4)[C@H](C2)O3)O[C@H](C)[C@H]1O (stereo partly specified) .
A) 1

----------
- EXPERIMENT_SUMMARY: Observed AUC infinity in ICR (CD-1) mouse at 1 mg/kg, iv measured upto 24 hrs
- Type: ADME, organism-based
- Set-up: dose 1 mg/kg, time < 24 hrs, route iv
- SETUP_CONDITIONS: ICR (CD-1), in vivo
ASSAY_ENDPOINT: AUC(0-inf) (ng·h/mL)
Your answer should be a plain number; it is taken to be in ng·h/mL.

Q) Give recorded AUC(0-inf). "C[C@@H]1[C@H](O)[C@@H](C)/C=C/C=C/C=C/C=C/C=C/C=C/C=C/[C@H](O[C@@H]2O[C@H](C)[C@@H](O)[C@H](NC(=O)CN)[C@@H]2O)C[C@@H]2O[C@](O)(C[C@@H](O)C[C@@H](O)[C@H](O)CC[C@@H](O)C[C@@H](O)CC(=O)O[C@H]1C)C[C@H](O)[C@H]2C(=O)NCCN"
A) 18300
